molecular target: human ATP Binding Cassette Subfamily C Member 1 (ABCC1) (UniProt P33527 1-1531); assay: FACS titration on C6-hC1 cells
pKd: −log10 of the molar value.
Measured quantity: pKd

Binder	Measured quantity	Recorded number
C1.845 (antibody, V domains shown) VH: EVQLVESGPGLVQPSQTLSLTCTVSGFSLTNNGVSWVRQPPGKGLEWIAAISSGGSIYYNLAFKSRLSISRNTSKGQVLLKMNSLQTEDTAMYFCARHRGYYGYNWGYFDYWGQGASVTVSS VL: NIQLTQSPSLLSASVGDRVTLSCKGSQNINNYLAWYQQKLGEAPKLLIYKTNSLQTGIPSRFSGSGSGSDYTLTISSLHSEDLATYYCYQYNDGYTFGAGTKLELK	pKd	7.66
C1.847 (antibody, V domains shown) VH: EVQLKESGPGLVQPSQTLSLTCTVSGFSLTNNGVSWVRQPPGKGLEWIAAISSGGNIYHNSALKSRLSISRNTAQSQVLLKMNSLQTEDTAMYFCARHRGYYGYNWGYFDYWGQGTLVTVSS VL: NIQLTQSPSLLSASVGDRVTLSCKGSQNIYNYLAWYQQKLGEAPKLLIYKTNSLQTGIPSRFSGSGSGTDYTLTISSLHSEDLATYYCCQYNNGYTFGAGTKLELK	pKd	7.66
C1.844 (antibody, V domains shown) VH: EVQLKESGPGLVQPSQTLSLTCTVSGFSLTSNGVIWVRQPPGKGLEWIAAISSGGNIYYNSGLKSRLGISRDTSKSQVFLKMNSLQTEDTAIYFCTRARGTTTAYVMDAWGQGASVTVSS VL: DIVMTQSPSSLAVSAGETVNINCKSSQSLLYSVNQKNYLAWYQQKPGQSPKLLIYWASTRQSGVPDRFIGSGSGTDFTLTISSVQAEDLAIYYCQQYYDTLMKMFGAGTKLELK	pKd	7.19
C1.773 (antibody, V domains shown) VH: EIQLAQSGPELVKPGASVKMSCKASGYSFIGYFMNWVKQSHGKSLEWIGRINPYNGDTFYNQKFKGKATLTVDKSSSTAHMELRSLTSEDSALYYCTRSGWGYDVYSFDYWGQGTLVTVSS VL: DIQMTQTPSSLSASLGDRVTISCRASQDISNYLNWYQQKPDGTVKLLIYYTSRLHSGVPSRFSGSGSGTDYSLTISNLEQEDIATYFCQQGNTLPWTFGGGTKLEIK	pKd	7.90
C1.841 (antibody, V domains shown) VH: EVQLLESGPGLVQPSQTLSLTCTVSGFSLTNNGVSWVRQPPGKGLEWVAAMSSGGNIYYNSAFKSRLSISRHTSKSQVLLKMNSLQTEDTAMYFCARHRGYYGYNWGYFDYWGQGVMVTVSS VL: NIQLTQSPSLLSASVGDSVSLRCKGSQNIYNYLAWYQQKLGEAPKLLIYKTNNLQTGIPSRFSGSGSGTDYTLTISSLNSEDLATYYCCQYNNGYTFGAGTKLELK	pKd	6.99
C1.830B (antibody, V domains shown) VH: EVQLKESGPGLVRPSQTLSLTCSVSGFSLTNYNVHWVRQPTGKGLEWMGIIWTGGYTDYNSDLKSRLSITRDTSKSQVFLKMNGLQTEDVATYYCARERHTMGITKSWYFDYWGQGASVTVSS VL: DILMTQSPASLSASLGETISIECLASEGIFSYLGWYQQKPGKSPQLLIYGANSLQAGVPSRFSGSGSGTQYSLKISSMQPEDEGDYFCQQSYKFPVTFGSGTKLELK	pKd	7.84
C1.851 (antibody, V domains shown) VH: EVQLKESGPGLVQPSQTLSLTCTVSGFSLTNNGVSWIRQPPGKGLEWIAAISSGGNIYYNSAFKSRLSISRNTSKRQVLLKMNSLQTEDTAMYFCARHRGYYGYNWGYFDYWGQGASVTVSS VL: NIQLTQSPSLLSASVGDRVTLSCKGSQNINNYLAWYQQKLGEAPKLLIYKTNSLQTGIPSRFSGSGSGTDYTLTISSLHSEDLATYYCCQYNNGYTFGAGTKLELKR	pKd	7.01

Cited source for all entries: patent US20230272117A1
